Hello, the source for this data is paper PMC3618987, in case you need it.

Target: β-Secretase (BACE1) (Homo sapiens, UniProt P56817)
Construct: purchased Sino Biological
Sequence (P56817 46-501): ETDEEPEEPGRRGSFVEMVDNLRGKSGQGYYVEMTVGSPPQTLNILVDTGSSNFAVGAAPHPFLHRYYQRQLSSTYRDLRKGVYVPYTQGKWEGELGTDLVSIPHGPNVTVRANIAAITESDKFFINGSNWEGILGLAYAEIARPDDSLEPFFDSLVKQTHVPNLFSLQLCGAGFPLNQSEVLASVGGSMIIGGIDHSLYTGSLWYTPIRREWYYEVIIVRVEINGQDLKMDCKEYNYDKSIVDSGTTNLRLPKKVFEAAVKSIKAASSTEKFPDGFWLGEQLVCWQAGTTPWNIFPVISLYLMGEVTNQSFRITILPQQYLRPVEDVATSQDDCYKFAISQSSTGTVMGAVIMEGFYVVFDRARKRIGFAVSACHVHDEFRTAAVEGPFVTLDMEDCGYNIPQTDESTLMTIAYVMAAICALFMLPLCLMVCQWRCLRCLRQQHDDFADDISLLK
Test: β-Secretase inhibition assay (fluorogenic substrate IV)
Type: biochemical
Conditions: read-out: BACE1 % Inhibition (at 25 µM) (±SEM)
Class YES: inhibition at 25 µM at least 60%. Class NO: inhibition at 25 µM below 60%.

Does inhibition at 25 µM meet or surpass 60% for N[C@@H](Cc1c[nH]c2ccccc12)Cn1cc(CNC(=O)c2ccccc2C(=O)c2ccc(O)cc2)nn1 [Compound 12d] ?
NO

Moving on to N[C@@H](Cc1c[nH]c2ccccc12)Cn1cc(CNC(=O)CCc2ccc(O)cc2)nn1 [Compound 12e]
NO

Moving on to O=C(NCc1cn(C[C@@H]2Cc3c([nH]c4ccccc34)CN2)nn1)c1cc(O)cc(O)c1 [Compound 6f]
NO

Moving on to Clc1ccc(-c2cn(C[C@@H]3Cc4c([nH]c5ccccc45)CN3)nn2)cc1Cl [Compound 6c]
YES

Moving on to O=C(NCc1cn(C[C@@H]2Cc3c([nH]c4ccccc34)CN2)nn1)c1ccccc1C(=O)c1ccc(O)cc1 [Compound 6d]
NO

Now take the following molecule into account.
Does inhibition at 25 µM meet or surpass 60% for CC(C)(C)c1ccc(-c2cn(C[C@@H]3Cc4c([nH]c5ccccc45)CN3)nn2)cc1 [Compound 6a] ?
YES
